Please provide measured IC50 for the entries that follow.
# Test system: human breast cancer MDA-MB-231 cell line
# run.description: MTT in vitro cytotoxicity assay, MDA-MB-231
# Type: cell-based
# assay.conditions: MDA-MB-231, MTT assay after 48 h of treatment, averaged from at least 3 independent experiments, variation ±10%, read-out: IC50 (µM) MDA-MB-231
Give bare numbers, in µM.

The cases that follow already have their IC50 on record.
[
  {
    "mol": "COc1cc([N+](=O)[O-])c2cc1Oc1ccc(cc1)C[C@H]1c3cc(c(OC)cc3CCN1C)Oc1c(OCc3ccccc3)c(OC)cc3c1[C@H](C2)N(C)CC3",
    "IC50 (µM)": 8.6
  },
  {
    "mol": "COc1ccc2cc1Oc1ccc(cc1)C[C@H]1c3cc(c(OC)cc3CCN1C)Oc1c(OC(C)=O)c(OC)cc3c1[C@H](C2)N(C)CC3",
    "IC50 (µM)": 6.67
  },
  {
    "mol": "COc1ccc2cc1Oc1ccc(cc1)C[C@H]1c3cc(c(OC)cc3CCN1C)Oc1c(OCc3ccccc3)c(OC)cc3c1[C@H](C2)N(C)CC3",
    "IC50 (µM)": 5.13
  },
  {
    "mol": "COc1ccc2cc1Oc1ccc(cc1)C[C@H]1c3cc(c(OC)cc3CCN1C)Oc1c(OC(=O)c3ccco3)c(OC)cc3c1[C@H](C2)N(C)CC3",
    "IC50 (µM)": 6.02
  }
]

We next turn to a different compound, shown below.
Request: Give the measured IC50 of `COc1ccc2cc1Oc1ccc(cc1)C[C@H]1c3cc(c(OC)cc3CCN1C)Oc1c(OC(=O)c3ccccc3)c(OC)cc3c1[C@H](C2)N(C)CC3` .
Result: 3.46

Data origin: paper PMC6150242
